This collection of values is drawn from patent US12421216B2.

Item-by-item account of solubility
# assay overview: Solubility of salts in water and in 0.2 M phosphate buffer pH 6 at 37° C. after 4 hours (HPLC-DAD)
# Type: physicochemical
# condition: 0.2M phosphate buffer pH 6, 37° C., 4 hours, about 5 mg salt in 1 mL
Please give a number only; it is taken to be in µg/mL.

For orientation, consider the following solved cases.
molecule	measured property	units of measure	assay result
CN1CCC(c2c(O)cc(O)c3c(=O)cc(-c4ccc(C(F)(F)F)cc4Cl)oc23)C1CO.CN1CCC(c2c(O)cc(O)c3c(=O)cc(-c4ccc(C(F)(F)F)cc4Cl)oc23)C1CO.O=C(OC(C(=O)O)C(OC(=O)c1ccccc1)C(=O)O)c1ccccc1 (stereo not drawn) [DiTr1]	solubility	µg/mL	40
CN1CCC(c2c(O)cc(O)c3c(=O)cc(-c4ccc(C(F)(F)F)cc4Cl)oc23)C1CO.O=P(O)(O)O (stereo not drawn) [Pho1]	solubility	µg/mL	30

// switching to the query molecule
Check the records and state solubility for CN1CC[C@@H](c2c(O)cc(O)c3c(=O)cc(-c4ccc(C(F)(F)F)cc4Cl)oc23)[C@@H]1CO.O=C(O)CC(=O)O [Mao1]
70
